Molecular target: Serotonin 3 (5-HT3) receptor (Rattus norvegicus, UniProt P35563+Q9JJ16)
Sequence (P35563 whole entry): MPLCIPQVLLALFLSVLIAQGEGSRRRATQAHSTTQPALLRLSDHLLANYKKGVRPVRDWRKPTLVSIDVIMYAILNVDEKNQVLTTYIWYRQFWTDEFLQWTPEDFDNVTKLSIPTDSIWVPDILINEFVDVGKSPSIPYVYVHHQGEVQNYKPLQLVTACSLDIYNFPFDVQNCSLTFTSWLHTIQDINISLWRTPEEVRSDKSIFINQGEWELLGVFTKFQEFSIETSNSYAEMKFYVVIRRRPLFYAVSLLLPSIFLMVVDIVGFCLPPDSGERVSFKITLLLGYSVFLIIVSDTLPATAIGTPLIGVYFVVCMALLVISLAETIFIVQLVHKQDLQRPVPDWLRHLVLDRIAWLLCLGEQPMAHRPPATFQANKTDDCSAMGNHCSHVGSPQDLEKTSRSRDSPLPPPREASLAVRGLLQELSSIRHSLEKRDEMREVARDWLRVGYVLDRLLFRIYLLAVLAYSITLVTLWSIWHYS
Sequence (Q9JJ16 whole entry): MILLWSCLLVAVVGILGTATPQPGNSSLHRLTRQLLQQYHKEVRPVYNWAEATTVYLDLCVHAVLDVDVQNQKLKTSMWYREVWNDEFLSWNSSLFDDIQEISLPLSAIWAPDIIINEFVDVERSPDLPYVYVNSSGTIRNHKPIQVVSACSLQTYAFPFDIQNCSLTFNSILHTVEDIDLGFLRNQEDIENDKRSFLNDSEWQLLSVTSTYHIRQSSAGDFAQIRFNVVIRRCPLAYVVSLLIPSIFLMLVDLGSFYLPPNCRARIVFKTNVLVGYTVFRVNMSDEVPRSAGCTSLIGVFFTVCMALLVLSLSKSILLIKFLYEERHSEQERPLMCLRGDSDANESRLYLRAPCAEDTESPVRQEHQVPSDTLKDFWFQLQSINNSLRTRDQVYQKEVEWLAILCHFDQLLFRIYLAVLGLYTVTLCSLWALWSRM
Assay: Binding affinity was measured on 5-hydroxytryptamine 3 receptor using [3H]-BRL 43694 as radioligand in rat posterior cortex.
pKi: −log10 of the molar value.
measured quantity: pKi

Consider the worked cases shown below.
In [3]: df
Out[3]:
                                   compound  result
0  COc1cc(N)c(Cl)cc1C(=O)OCCN1CC(C)CC(C)C1 (stereo in doubt; 7g)  < 6.00
1         COc1cc(N)c(Cl)cc1C(=O)OCCN1CCCCC1    6.14
2  COc1cc(N)c(Cl)cc1C(=O)OCCN1CCCC(C)C1 (centres undefined)  < 6.00

## Task I am curious: what pKi value has been reported for COc1cc(N)c(Cl)cc1C(=O)OCCN1CC(C)CC(C)C1 (stereo in doubt; 7h) ?
## Result < 6.00

* * *

Target: 5-hydroxytryptamine receptor 4 (Rattus norvegicus)
Sequence (Q62758 whole entry): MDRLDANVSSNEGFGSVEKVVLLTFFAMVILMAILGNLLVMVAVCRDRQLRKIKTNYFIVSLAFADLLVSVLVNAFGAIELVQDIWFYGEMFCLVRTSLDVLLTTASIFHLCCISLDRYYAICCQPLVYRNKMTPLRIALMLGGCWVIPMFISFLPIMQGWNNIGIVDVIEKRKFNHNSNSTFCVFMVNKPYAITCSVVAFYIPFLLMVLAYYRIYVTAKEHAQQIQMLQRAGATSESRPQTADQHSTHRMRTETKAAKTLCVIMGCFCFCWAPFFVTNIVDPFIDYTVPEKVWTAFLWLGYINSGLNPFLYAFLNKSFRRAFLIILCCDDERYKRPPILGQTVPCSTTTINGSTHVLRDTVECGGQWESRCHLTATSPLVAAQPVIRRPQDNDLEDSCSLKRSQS
pKi: −log10 of the molar value.
# label = Fulfilled if pKi >= 8 else Not fulfilled

>>> print(df.to_string())
                                   compound  category_label
0  COc1cc(N)c(Cl)cc1C(=O)OCCN1C(C)CCCC1C (stereo unspecified)   Not fulfilled
1            COc1cc(N)c(Cl)cc1C(=O)OCCN(C)C   Not fulfilled
2      COc1cc(N)c(Cl)cc1C(=O)OCCN1CCC(C)CC1       Fulfilled

Now for a further compound.
## Task Quick check: does COc1cc(N)c(Cl)cc1C(=O)OCCN1CC(C)CC(C)C1 (stereo in doubt; 7g) have pKi greater than or equal to 8?
## Result Fulfilled

* * *

Biological target: 5-hydroxytryptamine receptor 4 (Rattus norvegicus)
pKi: −log10 of the molar value.
# label = YES if pKi >= 8 else NO

## Task Quick check: does COc1cc(N)c(Cl)cc1C(=O)N[C@H]1CN2CCC1CC2 [(R)ZACOPRIDE] have pKi greater than or equal to 8?
## Result NO

## Task Quick check: does COc1cc(N)c(Cl)cc1C(=O)OCCN1CCOCC1 have pKi greater than or equal to 8?
## Result NO

## Task Quick check: does COc1cc(N)c(Cl)cc1C(=O)OCCN1CCCC(C)(C)C1 have pKi greater than or equal to 8?
## Result YES

## Task Quick check: does COc1cc(N)c(Cl)cc1C(=O)NCCN1CCCCC1 have pKi greater than or equal to 8?
## Result NO

## Task Quick check: does COc1cc(N)c(Cl)cc1C(=O)OCCN1CCCCCC1 have pKi greater than or equal to 8?
## Result YES

* * *

The following molecules each carry a recorded pKi for 5-hydroxytryptamine receptor 4 (Rattus norvegicus, UniProt Q62758).
Give bare numbers, as −log10 of the molar value.

Consider the worked cases shown below.
In [3]: df
Out[3]:
                                   molecule  result_number
0  COc1cc(N)c(Cl)cc1C(=O)OCCN1CCCC(C)C1 (centres undefined)           9.03
1  COc1cc(N)c(Cl)cc1C(=O)OCC[N+]12CCC(CC1)CC2           8.22
2  COc1cc(N)c(Cl)cc1C(=O)OCCN1CC(C)OC(C)C1 (centres undefined)           8.20

Proceed to the following item.
## Task I am curious: what pKi value has been reported for Cn1cc(C(=O)OCC2CCN(CCNS(C)(=O)=O)CC2)c2ccccc21 ?
## Result 9.82
